The entries below come with measured koff values attached.
Target: T1, Canine IL-31RA ECD-10His (canine, biotin-labeled in the Octet assay (site not stated))
T1 construct: The ELISA and Octet protocols say only 'IL-31RA' or 'canine IL-31RA'; also called cIL-31RA; canine IL-31 receptor alpha extracellular domain, HIS-tagged
T1 chain: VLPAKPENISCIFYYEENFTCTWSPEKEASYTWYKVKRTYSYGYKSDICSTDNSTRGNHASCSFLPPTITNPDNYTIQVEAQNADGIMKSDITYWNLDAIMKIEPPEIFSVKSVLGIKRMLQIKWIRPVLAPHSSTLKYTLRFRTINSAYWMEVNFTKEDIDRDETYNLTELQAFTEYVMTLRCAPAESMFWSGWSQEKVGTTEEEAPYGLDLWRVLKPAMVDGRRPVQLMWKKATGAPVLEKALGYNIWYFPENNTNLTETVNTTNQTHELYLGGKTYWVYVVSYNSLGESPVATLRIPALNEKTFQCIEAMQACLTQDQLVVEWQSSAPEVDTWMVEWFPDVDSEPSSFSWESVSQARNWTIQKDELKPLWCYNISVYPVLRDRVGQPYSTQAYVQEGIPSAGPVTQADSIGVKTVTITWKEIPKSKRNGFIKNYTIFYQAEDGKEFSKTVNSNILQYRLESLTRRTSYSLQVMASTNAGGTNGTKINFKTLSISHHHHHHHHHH
Test: BLI (Octet HTX), biotin-labeled canine IL-31RA on SA biosensors, 1:1 fit
State the answer as a number, implicitly in s⁻¹.

Worked examples, 4 binders total:
{"binder": "85C10 (antibody, V domains shown, Mouse monoclonal antibody from a hybridoma; also called mouse mAb 85C10) VH: EFQLQQSGPELVKPGASVKISCKASGYSFTDYSINWVKQSNGKSLEWIGVINPNYGTSSHNQKFKGKATMTVDQSSSTAYMQLNSLTSEDSAVYYCARALDDYYFYWYFDVWGIGTTVTVSS VL: DVVMTQTPLSLPVSLGDQASISCRSSQSLVHTNGNTYLHWYLQKPGQSPKLLIYKVSNRFSGVPDRFSGSGSGTDFTLKISRVEAEDLGVYFCSQTTHVPLTFGAGTKLELK", "koff (s⁻¹)": 0.000363}
{"binder": "55B3 (antibody, V domains shown, Mouse monoclonal antibody from a hybridoma; also called mouse mAb 55B3) VH: EVQLQQSGPELVKPGASVKIPCKASGYTFTDYNMDWVKQSHGKSLEWIGHINPNTGGTIYNQKFKGKATLTVDKSSSTAYMDLRSLTSEDTAVYYCARWAQLLRQPYWYFDVWGTGTTVTVSS VL: DIKMTQSPSSMYASLGERVTITCKASQDINSYFNWVQQKPGKSPKTLIFRANRLVDGVPSRFSGSGSGQDYSLTINSLEYEDMGIYYCLQYDEFPLTFGAGTKLELK", "koff (s⁻¹)": 0.000154}
{"binder": "100H8 (antibody, V domains shown, Mouse monoclonal antibody from a hybridoma; also called mouse mAb 100H8) VH: EVQLQQSGPELVKPGASVKIPCKASGYTFTDYNMDWVKQSHGKSLEWIGHINPNNGGILYNQKFKGKATLTVDRSSNTAYMELRSLTSEDTAVYFCARWAPLVRQPYWYFDVWGTGTTVTVSS VL: DIKMTQSPSSIFASLGERVTITCKASQDINSYLNWFQQKPGKSPKTLIYRADRLVDGVPSRFSGSGSGQDYSLTISSLEYEDMGIYYCLQYDEFPLTFGAGTKLELN", "koff (s⁻¹)": 0.00012}
{"binder": "209G5 (antibody, V domains shown, Mouse monoclonal antibody from a hybridoma; also called mouse mAb 209G5) VH: EVQLQQSVAELVRPGASVKLSCTASGFNIKNTYMHWVKERPEQGLEWIGRIDPANGNSKYAPKFQGKATITTDTSSNTAYLQLSSLTSEDTAIYYCARYYYVSSHFDVWGTGTTVTVSS VL: SIVMTQTPKFLLVSAGDRVTITCKASQSVTNDVTWYQQKPGQSPKLLIYYASNRYTGVPDRFTGSGYGTDFTFTISTVQAEDLAVYFCQQDYSSPFTFGSGTKLEIK", "koff (s⁻¹)": "4.87e-05"}

// recorded koff for 51F8 (antibody, V domains shown, Mouse monoclonal antibody from a hybridoma; also called mouse mAb 51F8) VH: EVQLQQSVAELVRPGASVKLSCTASGFNIKNTFIHWVKQRPEQGLEWIGRIDPANGNTKYAPKFQGRATLTADTSSNTAYLQLSSLTSEDTAIYYCARYYYVSSYFDVWGTGTTVTVSS VL: SIVMTQTPKFLLVSAGDRVTITCKASQSVTNDVTWYQQKPGQSPKLLIFSASNRYTGVPDRFTGSGYGTDFTFTISTVQAEDLAVYFCQQDYSSPWTFGGGTKLEIK : 0.000141

// recorded koff for 74H10 (antibody, V domains shown, Mouse monoclonal antibody from a hybridoma; also called mouse mAb 74H10) VH: EVQLQQSGPELVKPGASMKIPCKTSGYTFTDYNMDWVKQSHGKSLEWIGHINPNNGGTLYNQKFKDKATLTVDRSSNTAYMELRSLTSEDTAVYYCARWAPLLRQPYWYFDVWGTGTTVTVSS VL: DIKMTQSPSSMYASLGERVTITCKASQDINSYLNWFQQKPGKSPKTLIYRADRLVDGVPSRFSGSGSGQDYSLTISSLEYEDMGIYYCLQYDEFPLTFGDGTKLELN : 9.05e-05

// recorded koff for 65G9 (antibody, V domains shown, Mouse monoclonal antibody from a hybridoma; also called mouse mAb 65G9) VH: EFQLQQSGPELVKPGASVKISCKASGYSFTDYGMNWLKQINGKSLEWIAIINPNYGTASSNPKFKDKATLTVDHSSSTAYMQLSSLTSEDSAVYYCARAFDGYYFYWYFDVWGTGTTVTVSS VL: DVVMTQTPLSLPVSLGDQASISCRSSQSLIHTNGNTYLHWYLQKPGQSPKLLIYKVSNRFSGVPDRFSGSGSGTDFTLKISRLEAEDLGVYFCSQSTHVPLTFGAGTKLELR : 0.000355

// recorded koff for 224G3 (antibody, V domains shown, Mouse monoclonal antibody from a hybridoma; also called mouse mAb 224G3) VH: EVQLVESGGDLVKPGGSLKLSCAASGFTFSSYGMSWVRQTPDKRLEWVATISNGGSYTYYPDSVKGRFTISRDNAKNTLYMQMSSLKSEDTAMYYCARNEPPDYWGQGTSVTVSS VL: QIVLTQSPAIMSASLGERVTMTCTASSSVGSSYLHWYQQKPGSSPKLWIYDTSNLASGVPVRFSGSGSGTSYSLTISSMEAEDAATYYCHQYHRSPYTFGGGTKLEIK : 1.08e-06
